Form field: inhibition at 40 min, 10 µM (one value per entry).
assayed-target: CYP2C9 (Homo sapiens, UniProt P11712)
Sequence (P11712 whole entry): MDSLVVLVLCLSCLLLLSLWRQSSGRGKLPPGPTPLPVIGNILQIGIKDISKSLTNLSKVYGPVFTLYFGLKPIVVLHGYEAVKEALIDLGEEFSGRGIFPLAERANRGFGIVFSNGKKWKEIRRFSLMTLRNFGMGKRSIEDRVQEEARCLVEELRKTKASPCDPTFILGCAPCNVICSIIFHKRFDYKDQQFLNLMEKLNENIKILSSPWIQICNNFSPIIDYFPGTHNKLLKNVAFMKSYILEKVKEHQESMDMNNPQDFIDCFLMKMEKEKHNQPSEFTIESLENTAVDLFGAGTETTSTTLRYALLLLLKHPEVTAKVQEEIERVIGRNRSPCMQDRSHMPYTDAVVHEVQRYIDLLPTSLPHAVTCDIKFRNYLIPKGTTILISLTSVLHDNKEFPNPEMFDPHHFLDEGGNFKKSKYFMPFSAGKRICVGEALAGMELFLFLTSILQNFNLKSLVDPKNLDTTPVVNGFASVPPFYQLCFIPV
test-name: Inhibition of human recombinant CYP2C9 using MFC as substrate at 10 uM incubated for 40 mins by fluorimetry relative to control
Assay type: ADME
stated-conditions: recombinant CYP2C9, probe MFC

| molecule | inhibition at 40 min, 10 µM (%) |
| --- | --- |
| O=C(NCc1ccc(F)cc1)C1C(=O)N(O)C(=O)c2ccccc21 (configuration not stated) | 6.4 |
| CCCCCCNC(=O)C1C(=O)N(O)C(=O)c2ccccc21 (configuration not stated) | 25.3 |

---

assayed-target: Human immunodeficiency virus type 1 integrase (Human immunodeficiency virus 1)
Sequence (Q7ZJM1 whole entry): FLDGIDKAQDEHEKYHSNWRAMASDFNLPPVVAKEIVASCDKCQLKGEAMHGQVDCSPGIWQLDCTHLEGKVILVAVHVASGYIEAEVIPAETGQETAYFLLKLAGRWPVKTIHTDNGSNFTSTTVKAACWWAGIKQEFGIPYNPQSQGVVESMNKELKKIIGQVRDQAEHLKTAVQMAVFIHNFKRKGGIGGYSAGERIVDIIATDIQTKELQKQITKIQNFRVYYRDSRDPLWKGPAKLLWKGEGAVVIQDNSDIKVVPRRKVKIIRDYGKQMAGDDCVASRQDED
test-name: Inhibition of HIV1 integrase using 3'-biotin-labelled and 5'-digoxigenin-labelled oligonucleotide substrate incubated for 1 hr by ELISA
Form field: IC50 (one value per entry).
measure: IC50 (nM)

| molecule | unit-abbreviation | value |
| --- | --- | --- |
| O=C(NC1CCCC1)C1C(=O)N(O)C(=O)c2ccccc21 (stereo not given) | nM | 1360 |
| CCCNC(=O)C1C(=O)N(O)C(=O)c2ccccc21 (stereo not given) | nM | 1820 |
| CCCCCCCCCNC(=O)C1C(=O)N(O)C(=O)c2ccccc21 (stereo not given) | nM | 6650 |
| O=C(C1C(=O)N(O)C(=O)c2ccccc21)N1CCCCC1 (stereo not given) | nM | 8120 |
| CCN(CC)C(=O)C1C(=O)N(O)C(=O)c2ccccc21 (stereo not given) | nM | 123000 |
| CCCCNC(=O)C1C(=O)N(O)C(=O)c2ccccc21 (stereo not given) | nM | 660 |
| O=C(NC1CC1)C1C(=O)N(O)C(=O)c2ccccc21 (stereo not given) | nM | 2130 |
| CCCCCCCCNC(=O)C1C(=O)N(O)C(=O)c2ccccc21 (stereo not given) | nM | 9050 |
| O=C(NC1CCCCC1)C1C(=O)N(O)C(=O)c2ccccc21 (stereo not given) | nM | 700 |
| CCCCCCNC(=O)C1C(=O)N(O)C(=O)c2ccccc21 (stereo not given) | nM | 85 |
| CCCCCNC(=O)C1C(=O)N(O)C(=O)c2ccccc21 (stereo not given) | nM | 650 |
| CCCCCCCNC(=O)C1C(=O)N(O)C(=O)c2ccccc21 (stereo not given) | nM | 860 |
| CC(C)NC(=O)C1C(=O)N(O)C(=O)c2ccccc21 (stereo not given) | nM | 4430 |
| CCCCN(C)C(=O)C1C(=O)N(O)C(=O)c2ccccc21 (stereo not given) | nM | 8660 |
| CC(C)(C)NC(=O)C1C(=O)N(O)C(=O)c2ccccc21 (stereo not given) | nM | 4450 |

---

test-name: Cytotoxicity against human MT4 cells assessed as reduction in cell viability by MTT assay
Format: cell-based
Form field: CC50 (one value per entry).

| molecule | modifier | CC50 (µM) |
| --- | --- | --- |
| CCCCN(C)C(=O)C1C(=O)N(O)C(=O)c2ccccc21 (configuration not stated) | = | 63.8 |
| CCCCCCCNC(=O)C1C(=O)N(O)C(=O)c2ccccc21 (configuration not stated) | = | 110 |
| CC(C)NC(=O)C1C(=O)N(O)C(=O)c2ccccc21 (configuration not stated) | = | 162 |
| CCCCCCCCCNC(=O)C1C(=O)N(O)C(=O)c2ccccc21 (configuration not stated) | = | 88.5 |
| O=C(C1C(=O)N(O)C(=O)c2ccccc21)N1CCCCC1 (configuration not stated) | = | 120 |
| O=C(NC1CC1)C1C(=O)N(O)C(=O)c2ccccc21 (configuration not stated) | > | 250 |
| CCCNC(=O)C1C(=O)N(O)C(=O)c2ccccc21 (configuration not stated) | = | 131 |
| CCCCNC(=O)C1C(=O)N(O)C(=O)c2ccccc21 (configuration not stated) | = | 128 |
| CCN(CC)C(=O)C1C(=O)N(O)C(=O)c2ccccc21 (configuration not stated) | = | 28 |
| CCCCCCNC(=O)C1C(=O)N(O)C(=O)c2ccccc21 (configuration not stated) | = | 57.7 |
| O=C(NC1CCCC1)C1C(=O)N(O)C(=O)c2ccccc21 (configuration not stated) | > | 250 |
| CCCCCCCCNC(=O)C1C(=O)N(O)C(=O)c2ccccc21 (configuration not stated) | = | 98.5 |

---

test-name: Plasma protein binding in human at 10 uM incubated for 4 hrs by equilibrium dialysis method
Type: ADME, cell-free
stated-conditions: read-out: PPB

| compound | fraction unbound at 4 h, 10 µM |
| --- | --- |
| CCCCCCNC(=O)C1C(=O)N(O)C(=O)c2ccccc21 (stereo unspecified) | 0.001 |

---

test-name: Cytotoxicity against human MT4 cells assessed as reduction in cell viability by MTT assay
Type: cell-based

| compound | unit-abbreviation | modifier | CC50 |
| --- | --- | --- | --- |
| CC(C)(C)NC(=O)C1C(=O)N(O)C(=O)c2ccccc21 (stereo not drawn) | µM | = | 142 |
| O=C(NC1CCCCC1)C1C(=O)N(O)C(=O)c2ccccc21 (stereo not drawn) | µM | > | 250 |
| CCCCCNC(=O)C1C(=O)N(O)C(=O)c2ccccc21 (stereo not drawn) | µM | = | 130 |

---

assayed-target: CYP1A2 (Homo sapiens, UniProt P05177)
Sequence (P05177 whole entry): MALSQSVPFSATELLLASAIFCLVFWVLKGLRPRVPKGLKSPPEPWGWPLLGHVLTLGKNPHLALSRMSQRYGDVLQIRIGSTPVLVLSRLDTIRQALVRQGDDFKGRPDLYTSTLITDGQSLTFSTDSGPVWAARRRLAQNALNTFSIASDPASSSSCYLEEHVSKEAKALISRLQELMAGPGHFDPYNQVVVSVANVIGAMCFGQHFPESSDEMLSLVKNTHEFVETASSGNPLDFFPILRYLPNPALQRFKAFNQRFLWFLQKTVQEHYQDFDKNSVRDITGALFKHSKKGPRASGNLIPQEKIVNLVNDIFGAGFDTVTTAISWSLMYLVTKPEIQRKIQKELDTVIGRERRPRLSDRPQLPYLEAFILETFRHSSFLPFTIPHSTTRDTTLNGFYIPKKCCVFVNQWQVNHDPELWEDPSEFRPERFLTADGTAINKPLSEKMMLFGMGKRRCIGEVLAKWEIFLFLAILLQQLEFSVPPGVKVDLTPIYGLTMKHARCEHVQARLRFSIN
test-name: Inhibition of human recombinant CYP1A2 using CEC as substrate at 10 uM incubated for 30 mins by fluorimetry relative to control
Assay type: ADME
stated-conditions: recombinant CYP1A2, probe CEC
Form field: inhibition at 0.5 h, 10 µM (one value per entry).

| molecule | inhibition at 0.5 h, 10 µM, % |
| --- | --- |
| CCCCCCNC(=O)C1C(=O)N(O)C(=O)c2ccccc21 (configuration not stated) | 12.7 |
| O=C(NCc1ccc(F)cc1)C1C(=O)N(O)C(=O)c2ccccc21 (configuration not stated) | 5.2 |

---

test-name: Cytotoxicity against human HepG2 cells assessed as reduction in cell number at 1 uM after 72 hrs by fluorescent image analysis relative to untreated control
Format: cell-based
stated-conditions: read-out: INH
measure: cytotoxicity at 72 h, 1 µM (%)

| compound | value |
| --- | --- |
| O=C(NCc1ccc(F)cc1)C1C(=O)N(O)C(=O)c2ccccc21 (configuration not stated) | -22.8 |
| CCCCCCNC(=O)C1C(=O)N(O)C(=O)c2ccccc21 (configuration not stated) | -10 |

---

test-name: Apparent permeability coefficient in human Caco2 cells at pH 6.5/7.4 at 10 uM
Assay type: ADME, cell-based
stated-conditions: Caco-2, pH 6.5
measure: Papp at 10 µM

| compound | value |
| --- | --- |
| CCCCCCNC(=O)C1C(=O)N(O)C(=O)c2ccccc21 (stereo unspecified) | 24.6 ×10⁻⁶ cm/s |

---

Form field: inhibition at 5 min, 10 µM (one value per entry).
assayed-target: hERG (KCNH2) (Homo sapiens, UniProt Q12809)
Sequence (Q12809 whole entry): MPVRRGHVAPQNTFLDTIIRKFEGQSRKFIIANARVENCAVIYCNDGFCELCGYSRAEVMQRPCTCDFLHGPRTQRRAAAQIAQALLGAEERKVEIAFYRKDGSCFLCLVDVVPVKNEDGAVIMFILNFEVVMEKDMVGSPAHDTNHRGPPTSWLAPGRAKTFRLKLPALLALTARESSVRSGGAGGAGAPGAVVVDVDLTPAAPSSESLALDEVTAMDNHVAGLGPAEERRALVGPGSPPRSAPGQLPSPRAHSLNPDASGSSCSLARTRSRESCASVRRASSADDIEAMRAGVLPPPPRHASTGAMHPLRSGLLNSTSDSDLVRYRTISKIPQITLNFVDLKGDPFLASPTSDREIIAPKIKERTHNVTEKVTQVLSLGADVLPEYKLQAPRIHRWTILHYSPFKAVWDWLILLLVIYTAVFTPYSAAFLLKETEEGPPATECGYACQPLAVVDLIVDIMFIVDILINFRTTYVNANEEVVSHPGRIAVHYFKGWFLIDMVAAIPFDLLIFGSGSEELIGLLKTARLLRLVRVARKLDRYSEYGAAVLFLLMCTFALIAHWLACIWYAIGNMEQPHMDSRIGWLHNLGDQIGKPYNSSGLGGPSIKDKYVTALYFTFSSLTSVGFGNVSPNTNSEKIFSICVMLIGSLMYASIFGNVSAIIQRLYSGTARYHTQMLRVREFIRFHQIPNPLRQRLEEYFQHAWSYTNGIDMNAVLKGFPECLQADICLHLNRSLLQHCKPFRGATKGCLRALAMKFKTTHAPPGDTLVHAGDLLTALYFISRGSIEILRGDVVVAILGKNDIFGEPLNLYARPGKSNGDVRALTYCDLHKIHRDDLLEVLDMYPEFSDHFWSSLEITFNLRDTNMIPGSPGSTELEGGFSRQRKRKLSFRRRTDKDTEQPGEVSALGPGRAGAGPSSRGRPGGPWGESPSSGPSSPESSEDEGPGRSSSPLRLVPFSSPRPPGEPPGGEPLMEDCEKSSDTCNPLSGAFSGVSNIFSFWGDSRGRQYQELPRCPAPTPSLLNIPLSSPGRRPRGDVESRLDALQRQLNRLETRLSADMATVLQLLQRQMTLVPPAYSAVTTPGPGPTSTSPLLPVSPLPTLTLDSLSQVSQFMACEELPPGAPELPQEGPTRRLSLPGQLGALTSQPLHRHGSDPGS
test-name: in vitro
stated-conditions: CHO-K1 cells expressing human ERG

| compound | unit-abbreviation | inhibition at 5 min, 10 µM |
| --- | --- | --- |
| O=C(NCc1ccc(F)cc1)C1C(=O)N(O)C(=O)c2ccccc21 (configuration not stated) | % | 13.3 |
| CCCCCCNC(=O)C1C(=O)N(O)C(=O)c2ccccc21 (configuration not stated) | % | 19.4 |

---

test-name: Cytotoxicity against human HepG2 cells assessed as reduction in cell number at 100 uM after 72 hrs by fluorescent image analysis relative to untreated control
Type: cell-based
stated-conditions: read-out: INH
Form field: cytotoxicity at 72 h, 100 µM (one value per entry).

| compound | unit-abbreviation | cytotoxicity at 72 h, 100 µM |
| --- | --- | --- |
| O=C(NCc1ccc(F)cc1)C1C(=O)N(O)C(=O)c2ccccc21 (configuration not stated) | % | 16 |
| CCCCCCNC(=O)C1C(=O)N(O)C(=O)c2ccccc21 (configuration not stated) | % | 25.3 |

---

assayed-target: CYP3A4 (Homo sapiens)
Sequence (P08684 whole entry): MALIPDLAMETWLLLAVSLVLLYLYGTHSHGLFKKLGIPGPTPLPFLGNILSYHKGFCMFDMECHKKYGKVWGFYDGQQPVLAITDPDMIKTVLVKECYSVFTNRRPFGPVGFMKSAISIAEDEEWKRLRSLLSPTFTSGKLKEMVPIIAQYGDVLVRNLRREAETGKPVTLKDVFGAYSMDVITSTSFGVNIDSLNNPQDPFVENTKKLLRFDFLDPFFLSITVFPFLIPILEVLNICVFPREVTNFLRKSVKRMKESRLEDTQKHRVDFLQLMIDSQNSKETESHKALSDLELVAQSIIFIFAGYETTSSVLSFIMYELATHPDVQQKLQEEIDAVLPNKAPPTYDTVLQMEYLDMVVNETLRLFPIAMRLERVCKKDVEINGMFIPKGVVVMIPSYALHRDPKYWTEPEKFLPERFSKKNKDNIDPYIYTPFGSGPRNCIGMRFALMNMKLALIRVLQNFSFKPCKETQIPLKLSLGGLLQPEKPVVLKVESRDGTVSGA
test-name: Inhibition of human recombinant CYP3A4 using BFC as substrate at 10 uM incubated for 30 mins by fluorimetry relative to control
Assay type: ADME
stated-conditions: recombinant CYP3A4, probe BFC

| molecule | inhibition at 0.5 h, 10 µM |
| --- | --- |
| CCCCCCNC(=O)C1C(=O)N(O)C(=O)c2ccccc21 (configuration not stated) | 42% |
| O=C(NCc1ccc(F)cc1)C1C(=O)N(O)C(=O)c2ccccc21 (configuration not stated) | 35.9% |

---

assayed-target: CYP2C19 (Homo sapiens, UniProt P33261)
Sequence (P33261 whole entry): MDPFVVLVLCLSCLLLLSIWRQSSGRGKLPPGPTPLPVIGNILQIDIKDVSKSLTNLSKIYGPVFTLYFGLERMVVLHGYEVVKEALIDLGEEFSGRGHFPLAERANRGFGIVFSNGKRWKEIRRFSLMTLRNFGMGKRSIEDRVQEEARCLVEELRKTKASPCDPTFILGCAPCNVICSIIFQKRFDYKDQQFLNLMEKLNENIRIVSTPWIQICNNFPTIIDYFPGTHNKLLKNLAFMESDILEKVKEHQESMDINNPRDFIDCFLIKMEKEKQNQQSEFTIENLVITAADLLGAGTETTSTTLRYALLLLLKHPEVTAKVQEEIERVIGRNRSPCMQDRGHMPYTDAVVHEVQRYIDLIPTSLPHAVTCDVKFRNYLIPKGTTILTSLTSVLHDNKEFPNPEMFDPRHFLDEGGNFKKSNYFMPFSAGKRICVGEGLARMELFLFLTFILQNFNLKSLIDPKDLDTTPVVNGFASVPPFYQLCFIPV
test-name: Inhibition of human recombinant CYP2C19 using CEC as substrate at 10 uM incubated for 50 mins by fluorimetry relative to control
Assay type: ADME
stated-conditions: recombinant CYP2C19, probe CEC

| compound | inhibition at 50 min, 10 µM, % |
| --- | --- |
| CCCCCCNC(=O)C1C(=O)N(O)C(=O)c2ccccc21 (configuration not stated) | 9.3 |
| O=C(NCc1ccc(F)cc1)C1C(=O)N(O)C(=O)c2ccccc21 (configuration not stated) | 18 |
